- Tested on: BDF1 mice, P388 leukemia ip, median survival T/C
- procedure_text: NCI In Vivo Anticancer Drug Screen. Data for tumor model P388 Leukemia (intraperitoneal) in B6D2F1 (BDF1) mice
- assay_conditions: endpoint: median survival time; dose: 50.0 mg/kg/injection; schedule: Q01DX009 (ip); vehicle: saline with Tween-80
Toxic doses and inconclusive results are not listed. The calls were made as follows: active = survival T/C of 150% or more; inactive = T/C below 125% in these data.
Your response should consist of one outcome taken from 1 for active, -1 for inactive

Study these solved cases before continuing.
O=c1cc(O)[nH]c(=S)[nH]1	-1
Cc1nc(Cl)c(C(N)=O)nc1C	-1
Cc1ccc(S(=O)(=O)NC(=O)Oc2nc3cc(Cl)ccc3o2)cc1	-1
C=C(C)C(=O)NCC(=O)NC(Cc1ccccc1)C(=O)Oc1ccc([N+](=O)[O-])cc1 (stereo not drawn)	-1
OC1(O)CCN(Cc2ccccc2)CC1	-1
CCOC(=O)C1=C(C)NC(C)=C(C(=O)OCC)C1c1ccccc1	-1
Cc1ccc(Nc2ccc(Nc3ccc(C)cc3)c3c2C(=O)c2ccccc2C3=O)cc1	-1
COC(=O)C1CC(=O)N(C)c2sc(C)c(C)c2C1=O (stereo not drawn)	-1
Cc1ccc(S(=O)(=O)OCC2C3CCCC2C3)cc1 (stereo not drawn)	-1
O=C1CN=C(c2ccc[nH]2)c2cc(Cl)ccc2N1	-1

Query: recorded result category for Cc1ccc(C(=O)CO)cc1 in this test
-1

Again, but for CS(=O)(=O)CC(O)(c1ccccc1)c1ccccn1 (stereo not drawn)
-1

Same question for COc1ccccc1N1CCN(CC(O)COc2ccccc2C(C)=O)CC1 (stereo not drawn) please.
-1

Try this compound next: COc1cc(C2=CC(OC)(OC)C=C(C(C)(C)C)C2=O)c(O)c(C(C)(C)C)c1
-1

Now this one: Oc1c(Cl)cc(Cl)cc1C1N=NC2=C(CCCC2)N1O (stereo not drawn)
-1

Also check O=C(c1ccccc1)C1CN(C2CCCC2)C1c1ccccc1 (stereo not drawn)
-1

Would you mind doing CC(C)CNS(=O)(=O)c1ncnc2nc[nH]c12 as well?
-1

Query NC(=O)NN=C1CCC(c2ccccc2)CC1 (stereo not drawn) next
-1

How about CCCCN(CCCC)CCC(=O)c1ccc(OC)c2ccccc12 ?
-1
